# Protocol Details: Caco-2 permeability assay
# Test Parameters: human, Caco-2, pH 7.4
Measure: efflux ratio at 120 min, 5 μM

# Compound, Observed Value
records = [
    ("COc1cc(-c2cncc(-c3ccc(N4CCN(C)CC4)cc3)c2C)cc(OC)c1C(N)=O [Compound 26d]", "> 10"),
]

---

# Protocol Details: mouse liver microsomal stability assay
# Assay type: in vitro ADME
# Test Parameters: male, CD-1, mouse, microsomes, pH 7.4, mouse liver microsomes, 60 min, 37 °C, read-out: MLM % Remaining at 1h
# remaining at 1 h, 1 μM per entry
Measure: remaining at 1 h, 1 μM (%)

# Molecule, Unit String, Observed Value
rows = [
    ("COc1cc(-c2cncc(-c3ccc(N4CCNCC4)cc3)c2C)cc(F)c1C(N)=O", "%", 98.4),
    ("COc1cc(-c2cncc(-c3ccc(N4C[C@@H](C)N(C)[C@@H](C)C4)cc3)c2C)cc(OC)c1C(N)=O [Compound 26f]", "%", 57.5),
    ("COc1cc(-c2cncc(-c3ccc(N4CCN(C)CC4)cc3)c2C)cc(F)c1C(N)=O [Compound 26a]", "%", 54.6),
    ("COc1cc(-c2cncc(-c3ccc(N4C[C@@H](C)N(C)[C@@H](C)C4)cc3)c2C)cc(F)c1C(N)=O [Compound 26c]", "%", 48.7),
]

src = paper PMC8213057
